src = patent US20250179187A1

Each entry below carries its reported EC50 (PD-1/PD-L2 blockade reporter assay, luminescence).
Biological target: T1, human PD-L2 on CHO-K1 cells of the Promega PD-1/PD-L2 blockade bioassay (human, UniProt Q9BQ51 20-273)
T1 sequence (looked up): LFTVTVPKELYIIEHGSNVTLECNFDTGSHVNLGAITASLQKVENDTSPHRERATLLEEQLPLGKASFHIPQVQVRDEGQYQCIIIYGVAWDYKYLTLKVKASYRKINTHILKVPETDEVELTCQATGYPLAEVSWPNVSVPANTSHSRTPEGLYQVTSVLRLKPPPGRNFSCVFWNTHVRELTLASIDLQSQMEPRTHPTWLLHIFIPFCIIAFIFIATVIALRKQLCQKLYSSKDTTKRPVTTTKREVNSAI
Experiment: cell-based or functional assay
PROPERTY MEASURED: EC50 (PD-1/PD-L2 blockade reporter assay, luminescence)

[[record]]
binder = "VH6/VK1 (antibody, V domains shown, hIgG1 backbone, CHO expressed) VH: QVQLVQSGAEVKKPGSSVKVSCKASGYSFSNYFIEWVKQPPGKGLEWIGLNIPGSGGSNYAEKFKGRVTITADKSTSTAYMELSSLRSEDTAVYYCARRRLPPDWYFDVWGQGTTVTVSS VL: DVVMTQSPLSLPVTLGQPASISCRSSQSLVHSDGNTYLHWYQQKPGQPPKLLIYKVSNRFSGVPDRFSGSGSGTDFTLKISRVEAEDVGVYFCSQSTHVPWTFGGGTKVEIK"
observed_measurement = "0.82 nM"

[[record]]
binder = "VH6/VK3 (antibody, V domains shown, hIgG1 backbone, CHO expressed) VH: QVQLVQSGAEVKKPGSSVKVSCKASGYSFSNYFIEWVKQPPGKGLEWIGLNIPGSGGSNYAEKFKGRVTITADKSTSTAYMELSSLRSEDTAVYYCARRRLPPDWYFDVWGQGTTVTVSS VL: DVVMTQSPLSLPVTLGQPASISCRSSQSLVHSGGNTYLHWYQQKPGQPPKLLIYKVSNRFSGVPDRFSGSGSGTDFTLKISRVEAEDVGVYFCSQSTHVPWTFGGGTKVEIK"
observed_measurement = "0.62 nM"

[[record]]
binder = "VH0/VK0 chimeric antibody (hIgG1 backbone) (antibody, V domains shown, Mouse variable regions on human IgG1 backbone, expressed in CHO cells; also called chimeric anti-PDL2 lead mAb VH0/VK0) VH: QVQLQQSGAELVRPGTSVKVSCKASGYAFSNYFIEWVKQRPGQGLEWIGLNIPGSGGSNYAEKFKGKATLTADKSSSTAYMQLSSLTSEDSAVYFCARRRLPPDWYFDVWGTGTTVTVSS VL: DVVMTQTPLSLPVSLGDQASISCRSSQSLVHSDGNTYLHWYLQKPGQSPKLLIYKVSNRFSGVPDRFSGSGSGTDFTLKISRVEAEDLGVYFCSQSTHVPWTFGGGTKLEIK"
observed_measurement = "0.64 nM"

